- assay: Brain delivery property: brain tissue and plasma concentration after oral administration
- Format: in vivo
- experimentalConditions: female; plasma; 10 mg/kg oral, one portion, C57BL/6J mouse, non-fasting; read-out: AUC0-6 hr
assayMetric: AUC(0-t)

May I ask what AUC(0-t) has been recorded for CN(CCOc1ccc(CC2SC(=O)NC2=O)cc1)c1ccccn1 (centres unmarked) ?
40400 ng·h/mL

May I ask what AUC(0-t) has been recorded for Cc1ccc(C(=O)c2cccn2C/C=C/c2ccc(COC(C)(C)C(=O)O)cc2)cc1 ?
9710 ng·h/mL

----------
- assay: Brain delivery property: brain tissue and plasma concentration after oral administration
- Type: in vivo
- experimentalConditions: female; plasma; 10 mg/kg oral, one portion, C57BL/6J mouse, non-fasting
assayMetric: half-life (min)
# value in min; strip the unit string

May I ask what half-life has been recorded for CN(CCOc1ccc(CC2SC(=O)NC2=O)cc1)c1ccccn1 (centres unmarked) ?
75.6

May I ask what half-life has been recorded for Cc1ccc(C(=O)c2cccn2C/C=C/c2ccc(COC(C)(C)C(=O)O)cc2)cc1 ?
275

----------
- assay: Brain delivery property: brain tissue and plasma concentration after oral administration
- Type: in vivo
- experimentalConditions: female, brain and plasma; 10 mg/kg oral, one portion, C57BL/6J mouse; read-out: Kp value (brain/plasma AUC0-6 hr ratio)
assayMetric: Kp

May I ask what Kp has been recorded for CN(CCOc1ccc(CC2SC(=O)NC2=O)cc1)c1ccccn1 (centres unmarked) [Rosiglitazone, rosiglitazone] ?
0.0451

May I ask what Kp has been recorded for Cc1ccc(C(=O)c2cccn2C/C=C/c2ccc(COC(C)(C)C(=O)O)cc2)cc1 [Compound A] ?
0.154

----------
- assay: Brain delivery property: brain tissue and plasma concentration after oral administration
- Format: in vivo
- experimentalConditions: female; brain; 10 mg/kg oral, one portion, C57BL/6J mouse, non-fasting; read-out: AUC0-6 hr
assayMetric: AUC(0-t)
Could you kindly put the unit after your number?

May I ask what AUC(0-t) has been recorded for CN(CCOc1ccc(CC2SC(=O)NC2=O)cc1)c1ccccn1 (centres unmarked) ?
1820 ng·h/mL

May I ask what AUC(0-t) has been recorded for Cc1ccc(C(=O)c2cccn2C/C=C/c2ccc(COC(C)(C)C(=O)O)cc2)cc1 ?
1500 ng·h/mL

----------
- assay: Brain delivery property: brain tissue and plasma concentration after oral administration
- Type: in vivo
- experimentalConditions: female; brain; 10 mg/kg oral, one portion, C57BL/6J mouse, non-fasting
assayMetric: half-life (h)
# value in h; strip the unit string

May I ask what half-life has been recorded for CN(CCOc1ccc(CC2SC(=O)NC2=O)cc1)c1ccccn1 (centres unmarked) ?
1.06

May I ask what half-life has been recorded for Cc1ccc(C(=O)c2cccn2C/C=C/c2ccc(COC(C)(C)C(=O)O)cc2)cc1 ?
4.26
